assayed_system: hTLR8 (Homo sapiens)
Construct: expressed in transfected cells; host or cells: HEK-Blue hTLR cells
Sequence (Q9NR97 27-1041): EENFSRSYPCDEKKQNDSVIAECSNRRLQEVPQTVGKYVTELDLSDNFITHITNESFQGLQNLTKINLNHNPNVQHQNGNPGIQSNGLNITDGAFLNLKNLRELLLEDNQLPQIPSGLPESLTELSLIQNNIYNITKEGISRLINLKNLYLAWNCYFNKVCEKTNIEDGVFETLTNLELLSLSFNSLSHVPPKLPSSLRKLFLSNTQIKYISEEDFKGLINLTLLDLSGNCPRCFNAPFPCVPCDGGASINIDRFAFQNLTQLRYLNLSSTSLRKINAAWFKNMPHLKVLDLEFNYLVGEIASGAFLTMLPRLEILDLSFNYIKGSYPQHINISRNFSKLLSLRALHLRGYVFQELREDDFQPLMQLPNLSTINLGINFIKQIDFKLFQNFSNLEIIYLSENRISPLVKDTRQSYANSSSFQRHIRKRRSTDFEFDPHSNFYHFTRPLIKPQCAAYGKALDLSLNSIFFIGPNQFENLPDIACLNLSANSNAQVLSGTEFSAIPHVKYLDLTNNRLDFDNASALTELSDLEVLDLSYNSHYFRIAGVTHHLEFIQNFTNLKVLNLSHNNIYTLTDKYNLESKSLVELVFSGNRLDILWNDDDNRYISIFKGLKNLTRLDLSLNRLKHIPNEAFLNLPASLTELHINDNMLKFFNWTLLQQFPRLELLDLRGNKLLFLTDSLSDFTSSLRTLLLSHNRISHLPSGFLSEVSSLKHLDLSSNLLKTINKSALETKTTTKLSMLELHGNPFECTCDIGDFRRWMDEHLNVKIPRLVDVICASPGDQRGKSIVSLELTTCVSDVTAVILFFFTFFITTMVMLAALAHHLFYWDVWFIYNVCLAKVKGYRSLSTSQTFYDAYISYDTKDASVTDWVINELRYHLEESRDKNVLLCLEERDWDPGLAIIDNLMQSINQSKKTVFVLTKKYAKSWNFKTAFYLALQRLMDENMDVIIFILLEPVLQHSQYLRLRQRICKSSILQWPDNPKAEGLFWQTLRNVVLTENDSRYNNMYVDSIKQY
assay_explanation: agonistic activity on hTLR8, HEK-Blue hTLR cells, SEAP reporter (QUANTI-Blue)
Assay type: cell-based
condition_details: ratio of TLR 7 EC50 to TLR 8 EC50
Procedure: Experiments on the agonistic activity of TLR7 and TLR8 by the compounds in vitro The compound was diluted with 1:3 series with DMSO for 9 concentration points, duplicated wells, and added to 96-well plate with Echo. […] 20 uL cell culture supernatant was taken, according to the QUANTI-Blue instructions, the reporter gene SEAP in the supernatant was detected, and the OD650 signal value was read with a microplate reader to calculate the agonist activity of the compound on the hTLR7 and hTLR8. […]
As shown below, each of these molecules has a reported TLR 8 selectivity TLR 7/TLR 8 value.
readout_type: TLR 8 selectivity TLR 7/TLR 8

• CCOCc1nc2c(N)nc3ccccc3c2n1C[C@H](C)O[P@@](=O)(N[C@@H](C)C(=O)OC(C)C)Oc1ccccc1 (single isomer, unassigned) = 39.4
• CCOCc1nc2c(N)nc3ccccc3c2n1C[C@@H](C)O[P@@](=O)(N[C@@H](C)C(=O)OC(C)C)Oc1ccc(Cl)cc1 (single isomer, unassigned) [Example 12A] = 1735
• CCOCc1nc2c(N)nc3ccccc3c2n1C[C@@H](C)O[P@@](=O)(N[C@@H](C)C(=O)OC(C)C)Oc1ccccc1 (single isomer, unassigned) = 3.2
• CCOCc1nc2c(N)nc3ccccc3c2n1C[C@@H](C)O[P@@](=O)(N[C@@H](C)C(=O)OC(C)C)Oc1cccc(Cl)c1 (single isomer, unassigned) [Example 11A] = 640
